Cited source for all entries: ChEMBL document CHEMBL4196093

TARGET_OR_SYSTEM: Serine/threonine-protein kinase ULK1 (Homo sapiens) (UniProt O75385)
Sequence (whole entry): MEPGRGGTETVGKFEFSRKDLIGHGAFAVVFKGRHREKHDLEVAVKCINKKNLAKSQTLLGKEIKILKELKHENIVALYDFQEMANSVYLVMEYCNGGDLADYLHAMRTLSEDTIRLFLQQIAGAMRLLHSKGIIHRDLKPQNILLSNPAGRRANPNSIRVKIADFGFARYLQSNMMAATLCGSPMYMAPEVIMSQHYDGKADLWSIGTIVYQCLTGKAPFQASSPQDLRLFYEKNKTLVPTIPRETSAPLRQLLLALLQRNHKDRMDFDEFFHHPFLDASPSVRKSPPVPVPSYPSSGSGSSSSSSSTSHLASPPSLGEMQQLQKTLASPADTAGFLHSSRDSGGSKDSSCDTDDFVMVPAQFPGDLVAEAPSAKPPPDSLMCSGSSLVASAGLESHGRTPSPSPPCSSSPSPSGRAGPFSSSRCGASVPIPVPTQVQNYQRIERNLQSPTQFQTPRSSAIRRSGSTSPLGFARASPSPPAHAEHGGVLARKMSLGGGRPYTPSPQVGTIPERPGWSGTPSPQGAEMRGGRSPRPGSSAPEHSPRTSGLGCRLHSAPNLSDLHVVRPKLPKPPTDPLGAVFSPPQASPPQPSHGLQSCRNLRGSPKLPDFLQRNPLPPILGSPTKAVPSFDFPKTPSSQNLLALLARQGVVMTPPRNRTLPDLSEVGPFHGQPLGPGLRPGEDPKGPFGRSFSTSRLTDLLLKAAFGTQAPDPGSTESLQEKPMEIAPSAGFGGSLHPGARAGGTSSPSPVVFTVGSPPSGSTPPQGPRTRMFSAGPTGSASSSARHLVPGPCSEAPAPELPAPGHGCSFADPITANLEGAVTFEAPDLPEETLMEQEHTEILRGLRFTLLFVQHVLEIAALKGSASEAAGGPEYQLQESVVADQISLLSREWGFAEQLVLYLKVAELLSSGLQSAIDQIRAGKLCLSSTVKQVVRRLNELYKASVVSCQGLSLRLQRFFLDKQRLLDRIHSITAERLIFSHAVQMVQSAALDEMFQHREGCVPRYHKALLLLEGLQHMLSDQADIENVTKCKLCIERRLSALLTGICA
PROTOCOL: Induction of ULK1-mediated autophagy in human SH-SY5Y cells at 1 uM after 6 hrs by MDC-staining based flow cytometric analysis relative to control
Type: cell-based
For each record, write down the corresponding Activity.
Answers are plain numbers, in %.

Give Activity for each of the items listed below.
1. COc1ccc(CCNC(=S)N[C@@H](C(=O)Nc2cc(C(F)(F)F)cc(C(F)(F)F)c2)c2ccccc2)cc1OC
2. COc1ccc(CCNC(=O)N[C@@H](C(=O)Nc2c(C)cccc2C)c2ccccc2)cc1OC

1. 39
2. 23.2

Give Activity for each of the items listed below.
1. COc1ccc(NC(=O)[C@H](NC(=O)NCCc2ccc(OC)c(OC)c2)c2ccccc2)cc1
2. Cc1ccccc1NC(=O)[C@H](NC(=O)Nc1ccc(C(F)(F)F)cc1)c1ccccc1
3. Cc1ccccc1NC(=O)[C@H](NCCc1ccc(O)cc1)c1ccccc1

21.1
38.4
21

* * *

TARGET_OR_SYSTEM: Serine/threonine-protein kinase ULK1 (Homo sapiens) (UniProt O75385)
Sequence (whole entry): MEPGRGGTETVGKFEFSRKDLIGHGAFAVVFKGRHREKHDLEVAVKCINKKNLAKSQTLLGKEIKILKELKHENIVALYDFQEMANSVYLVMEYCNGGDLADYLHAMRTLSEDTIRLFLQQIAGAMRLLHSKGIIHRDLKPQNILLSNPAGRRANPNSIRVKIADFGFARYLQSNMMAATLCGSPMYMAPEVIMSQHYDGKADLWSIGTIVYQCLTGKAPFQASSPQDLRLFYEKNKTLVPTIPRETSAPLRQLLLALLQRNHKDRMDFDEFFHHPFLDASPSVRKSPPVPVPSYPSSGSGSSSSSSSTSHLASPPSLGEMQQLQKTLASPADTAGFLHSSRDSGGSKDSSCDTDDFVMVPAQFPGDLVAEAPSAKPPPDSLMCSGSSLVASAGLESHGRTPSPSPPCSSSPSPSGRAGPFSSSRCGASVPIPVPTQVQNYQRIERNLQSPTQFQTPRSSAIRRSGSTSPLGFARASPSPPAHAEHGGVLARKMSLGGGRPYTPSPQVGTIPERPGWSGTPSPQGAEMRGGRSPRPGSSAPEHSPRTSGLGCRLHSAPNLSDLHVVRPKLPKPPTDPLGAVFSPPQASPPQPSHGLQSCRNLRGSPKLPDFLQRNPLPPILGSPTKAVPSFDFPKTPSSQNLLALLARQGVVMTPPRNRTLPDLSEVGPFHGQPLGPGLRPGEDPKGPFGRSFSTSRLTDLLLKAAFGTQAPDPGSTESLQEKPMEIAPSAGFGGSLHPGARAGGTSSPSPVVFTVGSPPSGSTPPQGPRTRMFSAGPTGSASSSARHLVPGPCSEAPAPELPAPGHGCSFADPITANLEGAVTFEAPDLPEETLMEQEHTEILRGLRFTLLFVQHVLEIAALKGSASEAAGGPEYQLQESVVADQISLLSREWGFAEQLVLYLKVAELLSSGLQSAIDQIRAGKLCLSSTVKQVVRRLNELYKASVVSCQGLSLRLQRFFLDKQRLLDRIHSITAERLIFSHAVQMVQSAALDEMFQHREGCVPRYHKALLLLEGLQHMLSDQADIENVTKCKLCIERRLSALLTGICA
PROTOCOL: Induction of ULK1-mediated autophagy in human SH-SY5Y cells at 1 uM after 6 hrs by MDC-staining based flow cytometric analysis relative to control
Assay type: cell-based
ASSAY_READOUT: Activity (%)
Numbers only, in %.

Give Activity for each of the items listed below.
1. COc1cccc(CCN[C@@H](C(=O)Nc2ccc(F)cc2F)c2ccccc2)c1
2. CN1CCN(CC(OC(=O)c2ccc3ncccc3c2)c2ccccc2)CC1 (stereo not given)
3. Cc1ccccc1NC(=O)[C@H](NC(=S)Nc1ccccc1)c1ccccc1

1. 20.6
2. 12.5
3. 36.2

Give Activity for each of the items listed below.
1. O=C(Nc1cccc(Br)c1)[C@H](NC(=S)Nc1cc(C(F)(F)F)cc(C(F)(F)F)c1)c1ccccc1
2. C[C@@H](NC(=O)[C@H](NC(=S)Nc1cc(C(F)(F)F)cc(C(F)(F)F)c1)c1ccccc1)c1ccccc1

39.6
32.9

* * *

TARGET_OR_SYSTEM: Serine/threonine-protein kinase ULK1 (Homo sapiens)
Sequence (whole entry): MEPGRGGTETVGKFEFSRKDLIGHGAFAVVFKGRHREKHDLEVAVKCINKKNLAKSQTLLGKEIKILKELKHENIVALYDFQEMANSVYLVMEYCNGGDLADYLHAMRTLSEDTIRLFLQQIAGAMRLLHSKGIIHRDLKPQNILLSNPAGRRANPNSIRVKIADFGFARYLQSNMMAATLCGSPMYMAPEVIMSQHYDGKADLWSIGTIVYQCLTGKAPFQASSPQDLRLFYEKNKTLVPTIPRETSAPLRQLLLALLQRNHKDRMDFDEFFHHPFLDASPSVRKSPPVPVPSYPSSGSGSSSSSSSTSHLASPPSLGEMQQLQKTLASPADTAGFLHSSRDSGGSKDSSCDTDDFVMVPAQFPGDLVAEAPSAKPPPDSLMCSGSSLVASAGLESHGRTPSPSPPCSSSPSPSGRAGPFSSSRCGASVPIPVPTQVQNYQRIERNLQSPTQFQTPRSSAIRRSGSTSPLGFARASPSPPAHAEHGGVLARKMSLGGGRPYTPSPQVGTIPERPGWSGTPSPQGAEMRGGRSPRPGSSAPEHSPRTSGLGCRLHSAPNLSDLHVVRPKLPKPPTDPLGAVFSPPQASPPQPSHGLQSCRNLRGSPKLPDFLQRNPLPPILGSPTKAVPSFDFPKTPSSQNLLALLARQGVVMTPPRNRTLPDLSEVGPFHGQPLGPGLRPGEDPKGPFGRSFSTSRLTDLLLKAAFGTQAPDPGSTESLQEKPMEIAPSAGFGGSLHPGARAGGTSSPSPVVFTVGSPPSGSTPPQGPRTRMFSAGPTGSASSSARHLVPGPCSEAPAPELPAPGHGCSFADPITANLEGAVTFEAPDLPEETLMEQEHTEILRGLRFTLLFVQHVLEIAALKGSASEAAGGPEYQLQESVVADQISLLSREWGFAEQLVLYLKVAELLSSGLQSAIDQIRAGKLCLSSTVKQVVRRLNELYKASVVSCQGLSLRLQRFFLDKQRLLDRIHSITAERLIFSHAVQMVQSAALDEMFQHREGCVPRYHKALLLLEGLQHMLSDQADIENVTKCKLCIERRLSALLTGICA
PROTOCOL: Induction of ULK1-mediated autophagy in human SH-SY5Y cells at 1 uM after 6 hrs by MDC-staining based flow cytometric analysis relative to control
Assay type: cell-based
For each record, write down the corresponding Activity.
One number for each entry, in %.

Examples with answers:
MOLECULE: Cc1ccccc1NC(=O)[C@H](NCCc1cccc2ccccc12)c1ccccc1
UNIT_INFO: %
Activity: 11
--
MOLECULE: Cc1ccc(NC(=O)N[C@@H](C(=O)Nc2ccccc2C)c2ccccc2)cc1
UNIT_INFO: %
Activity: 34.9
--
MOLECULE: O=C(Nc1cccc(Br)c1)[C@H](NC(=S)Nc1ccccc1)c1ccccc1
UNIT_INFO: %
Activity: 32.9
--
MOLECULE: O=C(Nc1ccc(F)cc1F)[C@H](NCCc1ccc(Cl)c(Cl)c1)c1ccccc1
UNIT_INFO: %
Activity: 31.4
--
MOLECULE: Cc1ccccc1NC(=O)[C@H](NC(=O)Nc1c(C)cccc1C)c1ccccc1
UNIT_INFO: %
Activity: 24.2

Give Activity for each of the items listed below.
1. Cc1ccccc1NC(=O)[C@H](NCCc1ccc([N+](=O)[O-])cc1)c1ccccc1
2. Cc1ccccc1NC(=O)[C@H](NCCc1cc(Cl)ccc1O)c1ccccc1
3. Cc1ccc(NC(=O)N[C@@H](C(=O)N[C@H](C)c2ccccc2)c2ccccc2)cc1

[16.6, 15.3, 16.6]

Give Activity for each of the items listed below.
1. CN1CCN(CC(OC(=O)c2ccc3c(c2)OCO3)c2ccccc2)CC1 (stereo not given)
2. COc1ccc(N2CCN(CC(OC(=O)c3cccc(C)c3)c3ccccc3)CC2)cc1 (stereo not given)

[14.7, 8.56]
